experimental_target: UniProtKB P21554
Sequence (P21554 whole entry): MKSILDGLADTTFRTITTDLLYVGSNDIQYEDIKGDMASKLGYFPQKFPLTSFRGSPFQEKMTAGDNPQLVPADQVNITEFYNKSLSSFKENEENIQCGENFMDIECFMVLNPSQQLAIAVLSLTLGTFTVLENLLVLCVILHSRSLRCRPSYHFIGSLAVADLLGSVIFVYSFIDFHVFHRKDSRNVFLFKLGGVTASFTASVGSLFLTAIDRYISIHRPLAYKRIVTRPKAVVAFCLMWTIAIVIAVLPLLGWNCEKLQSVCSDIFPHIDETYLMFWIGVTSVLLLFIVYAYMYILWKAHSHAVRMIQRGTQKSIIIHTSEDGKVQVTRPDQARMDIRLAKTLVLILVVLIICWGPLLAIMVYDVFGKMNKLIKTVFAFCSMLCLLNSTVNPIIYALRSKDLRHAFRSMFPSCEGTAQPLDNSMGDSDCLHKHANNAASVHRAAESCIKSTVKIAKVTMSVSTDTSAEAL
Please use Y for Ki under 70 nM and N for everything else, ties included.

compound	label_value
C/N=C(\NS(=O)(=O)c1ccc(F)cc1)N1CC(c2ccccc2)C(c2ccc(Cl)cc2)=N1 (stereo not given)	N
CNC(=NS(=O)(=O)c1ccc(C(F)(F)F)cc1)N1CC(c2ccccc2)C(c2ccc(Cl)cc2)=N1 (stereo not given)	N

Q: State whether 70 nM exceeds Ki recorded for CNC(=NS(=O)(=O)c1cccc(Cl)c1)N1CC(c2ccccc2)C(c2ccc(Cl)cc2)=N1 (stereo not given) .
Ans: Y

Q: State whether 70 nM exceeds Ki recorded for NC(=NS(=O)(=O)c1ccc(Cl)cc1)N1CC(c2ccccc2)C(c2ccc(Cl)cc2)=N1 (stereo not given) .
Ans: Y

====

Here, each record is paired with measured LED data.
experimental_target: Cannabinoid receptor 1 (Mus musculus) (UniProt P47746)
Sequence (P47746 whole entry, looked up): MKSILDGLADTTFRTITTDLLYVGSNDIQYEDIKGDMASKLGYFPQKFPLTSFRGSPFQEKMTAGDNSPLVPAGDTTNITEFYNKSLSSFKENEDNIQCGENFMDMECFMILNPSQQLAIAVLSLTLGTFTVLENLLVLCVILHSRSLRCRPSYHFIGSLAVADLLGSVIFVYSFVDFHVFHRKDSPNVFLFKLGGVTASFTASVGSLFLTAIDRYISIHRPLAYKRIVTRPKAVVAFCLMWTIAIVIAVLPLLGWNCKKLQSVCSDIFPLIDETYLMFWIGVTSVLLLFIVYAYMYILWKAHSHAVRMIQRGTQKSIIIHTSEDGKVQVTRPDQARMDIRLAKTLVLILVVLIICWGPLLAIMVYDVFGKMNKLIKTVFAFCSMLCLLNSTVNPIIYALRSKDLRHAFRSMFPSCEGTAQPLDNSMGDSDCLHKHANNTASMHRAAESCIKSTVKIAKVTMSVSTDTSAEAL
run_description: In vivo least effective dose required to antagonise cannabinoid receptor 1 agonist (WIN-55212) induced hypothermia in mouse upon peroral administration

See these solved cases before continuing.
compound	value_reported
C/N=C(\NS(=O)(=O)c1ccc(C(F)(F)F)cc1)N1C[C@@H](c2ccccc2)C(c2ccc(Cl)cc2)=N1	> 30 mg/kg
N=C(NS(=O)(=O)c1ccc(Cl)cc1)N1CC(c2ccccc2)C(c2ccc(Cl)cc2)=N1 (stereo not drawn)	> 30 mg/kg

Now consider the entry below.
Q: Input Cc1ccc(S(=O)(=O)NC(=N)N2CC(c3ccccc3)C(c3ccc(Cl)cc3)=N2)cc1 (stereo not drawn) , output reported LED.
Ans: > 30 mg/kg
